Taken from patent US4668690A.

- Tested on: supra maximal electroshock (extensor tonus)
- Method Summary: supra maximal electroshock assay (anticonvulsant)
- Assay type: in vivo, male mice (Charles River, CD-1)
- Applied Conditions: Mus musculus, sc; subcutaneous, mice; 50% inhibition; read-out: ED50, anticonvulsant effect (supra maximal electroshock)
Below: a set of entries, each annotated with reported ED50.

Compound: CNC[C@@]12CCCC[C@@H]1c1ccccc1O2.Cl (relative stereo)
Measure Unit: mg/kg
ED50: 22.5
--
Compound: CN(C)CC[C@@]12CCCC[C@@H]1c1ccccc1O2.Cl (relative stereo)
Measure Unit: mg/kg
ED50: 22.4
--
Compound: CN(C)CCC[C@@]12CCCC[C@@H]1c1ccccc1O2.Cl (relative stereo)
Measure Unit: mg/kg
ED50: 28.1
--
Compound: CNCCC[C@@]12CCCC[C@@H]1c1ccccc1O2 (relative stereo)
Measure Unit: mg/kg
ED50: 27.7
